The measurements presented in this section are drawn from patent US20260226068A1.

pIC50 values by entry
Biological target: IL-17A/F (Homo sapiens, UniProt Q16552+Q96PD4)
Sequence (Q16552 24-155): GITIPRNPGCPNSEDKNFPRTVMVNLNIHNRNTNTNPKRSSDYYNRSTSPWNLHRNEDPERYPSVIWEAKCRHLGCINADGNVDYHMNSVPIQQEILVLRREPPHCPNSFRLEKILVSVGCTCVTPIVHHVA
Sequence (Q96PD4 31-163): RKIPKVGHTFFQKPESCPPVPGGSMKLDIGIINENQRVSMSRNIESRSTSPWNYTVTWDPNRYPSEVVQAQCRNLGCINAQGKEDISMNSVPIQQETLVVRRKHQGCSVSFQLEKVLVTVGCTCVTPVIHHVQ
Test: IL-17A/F HEK-Blue cell assay (SEAP reporter)
Settings: HEK-Blue IL-17A reporter cells, IL17A/F 5 ng/mL, 20 hours, SEAP read at A630; read-out: HEK-Blue IL17AF (IC50 for IL-17A/F inhibition)
pIC50: −log10 of the molar value.

Cn1nccc1C(=O)N[C@H](c1cn2nc(C[C@H]3C[C@@H](C(F)(F)F)CNC3=O)c(CC3COC3)nc2n1)C1CCCCCC1 [Compound 377] | 6.00 to 7.00
CCn1nccc1C(=O)N[C@H](c1cn2nc(C[C@H]3C[C@@H](C(F)(F)F)CNC3=O)c(CN3CC4(C3)CC(O)(C(F)(F)F)C4)nc2n1)C1CCC(F)(F)CC1 [Compound 341] | < 6.00
CCn1nccc1C(=O)N[C@H](c1cn2nc(C[C@H]3C[C@@H](C(F)(F)F)CNC3=O)c(C3CCOC3)nc2n1)[C@@H]1CCCC(F)(F)C1 (single isomer, unassigned) [Compound 73] | 6.00 to 7.00
O=C(N[C@H](c1cn2nc(C[C@H]3C[C@@H](C(F)(F)F)CNC3=O)c(C3CCCOC3)nc2n1)[C@@H]1CCCC(F)(F)C1)c1nonc1C1CC1 (single isomer, unassigned) [Compound 209] | < 6.00

# pIC50 lookup, item CC[C@@H](c1ccc(F)cc1)[C@H](NC(=O)c1ccnn1CC)c1cn2nc(C[C@H]3C[C@@H](C(F)(F)F)CNC3=O)cnc2n1 [Compound 60]
< 6.00

# pIC50 lookup, item CCn1nccc1C(=O)N[C@H](c1cn2nc(C[C@H]3C[C@@H](C(F)(F)F)CNC3=O)c(N3CCN(C)[C@@H](C)C3)nc2n1)C1CCC(F)(F)CC1 [Compound 200]
6.00 to 7.00

# pIC50 lookup, item CCc1nonc1C(=O)N[C@H](c1cn2nc(C[C@@H]3C[C@H](C)CNC3=O)c(C3CCOCC3)nc2n1)C1CCC(F)(F)CC1 [Compound 396]
< 6.00

# pIC50 lookup, item CC(C)(C)n1nccc1C(=O)N[C@H](c1cn2nc(C[C@H]3C[C@@H](C(F)(F)F)CNC3=O)c(C3CCOCC3)nc2n1)C1CCC(F)(F)CC1 [Compound 414]
< 6.00

# pIC50 lookup, item CCn1nccc1C(=O)N[C@H](c1cn2nc(CC3C[C@@H](C(F)(F)F)CNC3=O)cnc2n1)C1CCC(F)(F)CC1 (single isomer, unassigned) [Compound 4]
< 6.00
